STUDY_SYSTEM: T1, human TIM-3 extracellular domain protein with hFc tag (hTIM-3-hFc) (human, UniProt Q8TDQ0 22-200)
T1 construct: not shown: human IgG Fc fragment (hFc) of the pCpC vector
T1 sequence: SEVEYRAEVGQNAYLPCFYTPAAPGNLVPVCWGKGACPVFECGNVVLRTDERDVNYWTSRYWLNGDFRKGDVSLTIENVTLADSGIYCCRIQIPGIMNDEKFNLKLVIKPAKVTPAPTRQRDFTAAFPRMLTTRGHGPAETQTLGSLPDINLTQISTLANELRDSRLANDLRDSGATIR
MEASUREMENT_DESCRIPTION: ELISA, coated human TIM-3 ECD protein, 0.0001 nM antibody
Some binders, each annotated with its measured OD450.
Write no unit; give the number alone.

BINDER	MEASURED_ATTRIBUTE	OBSERVED_MEASUREMENT
34B6D8 fully human TIM-3 antibody (human IgG4, kappa) (antibody, V domains shown) VH: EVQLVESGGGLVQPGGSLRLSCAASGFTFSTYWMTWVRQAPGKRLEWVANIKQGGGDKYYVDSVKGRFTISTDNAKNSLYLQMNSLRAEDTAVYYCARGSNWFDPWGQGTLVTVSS VL: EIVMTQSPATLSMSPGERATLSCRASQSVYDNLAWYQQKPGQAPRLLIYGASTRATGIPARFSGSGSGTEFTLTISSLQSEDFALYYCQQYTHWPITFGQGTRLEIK	OD450	0.09

Kindly consider the entry below.
I would be grateful if you could share the reported OD450 for 18D2H2 fully human TIM-3 antibody (human IgG4, kappa) (antibody, V domains shown) VH: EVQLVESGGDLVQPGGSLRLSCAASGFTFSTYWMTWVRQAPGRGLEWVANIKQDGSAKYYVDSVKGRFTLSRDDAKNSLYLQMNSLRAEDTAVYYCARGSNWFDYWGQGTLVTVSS VL: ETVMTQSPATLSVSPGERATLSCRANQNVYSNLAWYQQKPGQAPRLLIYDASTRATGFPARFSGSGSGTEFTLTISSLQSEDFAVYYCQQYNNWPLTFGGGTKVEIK . 0.08
